Test system: α1-adrenoceptors
Experiment: inhibition of tritiated ligand ([7-methoxy-^3 H]prazosin) binding to α1-adrenoceptors in vitro (whole cortical tissue)
Set-up: species or system rat (male Charles River CD)
Conditions: 10^-6 M, rat whole cortical tissue, 30 min, 1 µM
Structures can show the parent of a compound that is named as a salt.
Label criterion met when % displacement at 10^-6 M, α1 >= 90%; otherwise criterion not met.

# molecule, assigned class
records = [
    ("COc1ccc(N2CCC(CNCC3COc4ccccc4O3)CC2)cc1.Cl.Cl (centres unmarked) [Example 16]", "criterion met"),
    ("c1ccc(N2CCC(CNCC3COc4ccccc4O3)CC2)nc1 (single isomer, unassigned; (+)) [Example 20, dihydrochloride]", "criterion met"),
    ("Cl.Cl.c1ccc(N2CCC(CNCC3COc4ccccc4O3)CC2)nc1 (single isomer, unassigned; (-)) [Example 19]", "criterion met"),
    ("COc1ccccc1N1CCC(CNC[C@H]2COc3ccccc3O2)CC1 [Example 7]", "criterion met"),
    ("Cl.Clc1ccccc1N1CCC(CNCC2COc3ccccc3O2)CC1 (centres unmarked) [Example 22]", "criterion not met"),
    ("Cl.Cl.c1ccc2c(c1)OCC(CNCC1CCN(c3cccc4c3OCCO4)CC1)O2 (centres unmarked) [Example 13]", "criterion met"),
    ("COc1ccccc1NCCCNCC1COc2cccc(OC)c2O1.O=C(O)/C=C\\C(=O)O (centres unmarked) [Example 17]", "criterion met"),
    ("COc1cccc2c1OC(CNCC1CCN(c3cccc4c3OCC4)CC1)CO2.Cl (centres unmarked) [Example 25]", "criterion met"),
    ("COc1ccccc1N1CCC(CNC[C@@H]2COc3ccccc3O2)CC1 [Example 14]", "criterion not met"),
    ("COc1ccccc1NCC1CCN(CC2COc3ccccc3O2)CC1.O=C(O)C(=O)O (centres unmarked) [Example 15]", "criterion met"),
]

---

inhibition at 1 µM: recorded values
Target: α2-adrenoceptors (Rattus norvegicus)
Sequence (P22909 whole entry): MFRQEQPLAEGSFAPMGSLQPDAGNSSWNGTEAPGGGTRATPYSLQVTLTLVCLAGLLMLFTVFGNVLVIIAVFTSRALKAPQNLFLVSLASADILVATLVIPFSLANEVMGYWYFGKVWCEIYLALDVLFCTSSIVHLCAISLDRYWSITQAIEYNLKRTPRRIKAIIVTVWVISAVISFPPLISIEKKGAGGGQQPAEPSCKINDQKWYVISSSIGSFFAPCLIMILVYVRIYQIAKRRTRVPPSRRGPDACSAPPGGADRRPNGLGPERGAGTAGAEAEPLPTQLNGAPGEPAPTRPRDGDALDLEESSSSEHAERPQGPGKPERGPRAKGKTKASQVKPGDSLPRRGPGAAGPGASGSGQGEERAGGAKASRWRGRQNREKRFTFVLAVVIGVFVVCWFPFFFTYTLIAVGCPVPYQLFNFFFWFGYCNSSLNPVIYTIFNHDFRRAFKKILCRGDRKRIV
Test: inhibition of tritiated ligand (tritiated idazoxan) binding to α2-adrenoceptors in vitro (frontal cortical tissue)
Set-up: species or system rat (male Charles River CD)
Settings: read-out: % displacement at 10^-6 M, α2, 10^-6 M, rat frontal cortical tissue, tritiated idazoxan
Method: Frontal cortical tissue from the brains of male Charles River CD rats weighing between 150-250 g were homogenised in ice-cold 0.25M sucrose (1:30 w/v) and centrifuged at 1,000 g at 4° C. for 12 minutes. […] Combined supernatants were diluted with 5 mM Tris-HCl (pH 7.5) containing 0.5M ethylenediamine tetraacetic acid (EDTA) readjusted to pH 7.5 (at 25° C.) with 1M sodium hydroxide to 1:80 w/v, and centrifuged at 30,000 g at 4° C. for 10 minutes. […]
Where a name gives a salt, the structure may show the parent alone.

# molecule, measured target, inhibition at 1 µM, %
records = [
    ("Cl.Cl.c1ccc(N2CCC(CNCC3COc4ccccc4O3)CC2)nc1 (single isomer, unassigned; (-)) [Example 19, dihydrochloride]", "α2-adrenoceptors (Rattus norvegicus)", 96),
    ("Cl.Cl.c1ccc2c(c1)OCC(CNCC1CCN(c3cccc4c3OCCO4)CC1)O2 (centres unmarked) [Example 13, dihydrochloride]", "α2-adrenoceptors (Rattus norvegicus)", 66),
    ("COc1cccc2c1OC(CNCC1CCN(c3cccc4c3OCC4)CC1)CO2.Cl (centres unmarked) [Example 25, hydrochloride]", "α2-adrenoceptors (Rattus norvegicus)", 96),
    ("COc1ccccc1NCC1CCN(CC2COc3ccccc3O2)CC1.O=C(O)C(=O)O (centres unmarked) [Example 15, mono-oxalate]", "α2-adrenoceptors (Rattus norvegicus)", 94),
    ("COc1ccc(N2CCC(CNCC3COc4ccccc4O3)CC2)cc1.Cl.Cl (centres unmarked) [Example 16, dihydrochloride]", "α2-adrenoceptors (Rattus norvegicus)", 64),
    ("Cl.Cl.c1ccc(N2CCC(CNCC3COc4ccccc4O3)CC2)cc1 (centres unmarked) [Example 12, dihydrochloride]", "α2-adrenoceptors (Rattus norvegicus)", 66),
    ("Cl.Clc1ccccc1N1CCC(CNCC2COc3ccccc3O2)CC1 (centres unmarked) [Example 22, hydrochloride]", "α2-adrenoceptors (Rattus norvegicus)", 63),
    ("COc1ccccc1N1CCC(CNCC2COc3cccc(OC)c3O2)CC1 (centres unmarked) [Example 6, dihydrochloride]", "α2-adrenoceptors (Rattus norvegicus)", 92),
]

---

Target: 5-HT1A receptors (Rattus norvegicus, UniProt P19327)
Sequence (P19327 whole entry): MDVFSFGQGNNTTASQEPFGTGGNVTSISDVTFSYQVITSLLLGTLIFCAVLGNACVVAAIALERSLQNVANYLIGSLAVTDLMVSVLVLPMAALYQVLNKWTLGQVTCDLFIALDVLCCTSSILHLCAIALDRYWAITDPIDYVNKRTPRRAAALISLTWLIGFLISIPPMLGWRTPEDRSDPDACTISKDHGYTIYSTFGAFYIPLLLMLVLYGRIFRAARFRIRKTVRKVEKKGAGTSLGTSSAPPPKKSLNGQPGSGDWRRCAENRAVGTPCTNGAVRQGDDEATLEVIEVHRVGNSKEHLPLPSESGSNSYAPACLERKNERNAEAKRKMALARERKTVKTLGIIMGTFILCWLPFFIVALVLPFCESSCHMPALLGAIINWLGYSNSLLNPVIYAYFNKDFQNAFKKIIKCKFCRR
Assay: biochemical
Format: binding, rat (male Charles River CD)
Conditions: read-out: % displacement at 10^-6 M, 5-HT1A, 10^-6 M, rat hippocampal tissue, [^3 H]8-OH-DPAT
Measured inhibition at 1 µM by item

# compound, measured target, inhibition at 1 µM, %
records = [
    ("COc1cccc2c1OC(CNCC1CCN(c3cccc4c3OCC4)CC1)CO2.Cl (stereo not shown) [Example 25, hydrochloride]", "5-HT1A receptors (Rattus norvegicus, UniProt P19327)", 101),
    ("Cl.Cl.c1ccc(N2CCC(CNCC3COc4ccccc4O3)CC2)cc1 (stereo not shown) [Example 12, dihydrochloride]", "5-HT1A receptors (Rattus norvegicus, UniProt P19327)", 97),
    ("COc1ccccc1NCC1CCN(CC2COc3ccccc3O2)CC1.O=C(O)C(=O)O (stereo not shown) [Example 15, mono-oxalate]", "5-HT1A receptors (Rattus norvegicus, UniProt P19327)", 97),
    ("Cl.Cl.c1ccc(N2CCC(CNCC3COc4ccccc4O3)CC2)nc1 (single isomer, unassigned; (-)) [Example 19, dihydrochloride]", "5-HT1A receptors (Rattus norvegicus, UniProt P19327)", 98),
    ("Cl.Cl.c1ccc2c(c1)OCC(CNCC1CCN(c3cccc4c3OCCO4)CC1)O2 (stereo not shown) [Example 13, dihydrochloride]", "5-HT1A receptors (Rattus norvegicus, UniProt P19327)", 100),
    ("COc1ccc(N2CCC(CNCC3COc4ccccc4O3)CC2)cc1.Cl.Cl (stereo not shown) [Example 16, dihydrochloride]", "5-HT1A receptors (Rattus norvegicus, UniProt P19327)", 98),
    ("Cl.Clc1ccccc1N1CCC(CNCC2COc3ccccc3O2)CC1 (stereo not shown) [Example 22, hydrochloride]", "5-HT1A receptors (Rattus norvegicus, UniProt P19327)", 95),
]

---

Molecular target: 5-HT1A receptors (Rattus norvegicus, UniProt P19327)
Experiment: biochemical
Assay type: binding, rat (male Charles River CD)
Details: 10^-6 M, rat hippocampal tissue, [^3 H]8-OH-DPAT; read-out: % displacement at 10^-6 M, 5-HT1A
Structures can show the parent of a compound that is named as a salt.
Entries and their measured inhibition at 1 µM follow.

# molecule, inhibition at 1 µM (%)
rows = [
    ("COc1ccccc1N1CCC(CNC[C@@H]2COc3ccccc3O2)CC1 [Example 14]", 87),
    ("COc1ccccc1N1CCC(CNCC2COc3cccc(O)c3O2)CC1 (stereo not shown) [Example 28]", 94),
    ("COc1ccccc1N1CCC(CNCC2COc3cc(Cl)c(Cl)cc3O2)CC1 (stereo not shown) [Example 21]", 74),
    ("COc1ccccc1N1CCC(CNC[C@H]2COc3ccccc3O2)CC1 [Example 7]", 96),
    ("c1ccc(N2CCC(CNCC3COc4ccccc4O3)CC2)nc1 (single isomer, unassigned; (+)) [Example 20, dihydrochloride]", 82),
    ("COc1ccccc1NCCCNCC1COc2cccc(OC)c2O1.O=C(O)/C=C\\C(=O)O (stereo not shown) [Example 17, maleate]", 99),
    ("COc1ccccc1N1CCC(CNCC2COc3ccc4ccccc4c3O2)CC1 (stereo not shown) [Example 24, hydrate]", 97),
]

---

Reported Ki by item:
Target: α1-adrenoceptors
Test: inhibition of tritiated ligand ([7-methoxy-^3 H]prazosin) binding to α1-adrenoceptors in vitro (whole cortical tissue)
Set-up: species or system rat (male Charles River CD)
Settings: rat whole cortical tissue, 30° C., 30 minutes, > from highest concentration which displaced ≤50% of the ligand
Structures can show the parent of a compound that is named as a salt.

# compound, measured target, result units, modifier, Ki
measured = [
    ("c1ccc2c(c1)OCC(CNCC1CCN(c3cnccn3)CC1)O2 (centres unmarked) [Example 1, hydrochloride]", "α1-adrenoceptors", "nM", "=", 23.9),
    ("c1ccc(N2CCC(CNCC3COc4ccccc4O3)CC2)nc1 (centres unmarked) [Example 5, dihydrochloride]", "α1-adrenoceptors", "nM", "=", 79),
    ("COc1ccccc1N1CCC(CNCC2COc3cc(Cl)c(Cl)cc3O2)CC1 (centres unmarked)", "α1-adrenoceptors", "nM", ">", 500),
    ("COc1ccccc1N1CCC(CNCC2COc3ccccc3O2)CC1 (centres unmarked) [Example 2, dihydrochloride]", "α1-adrenoceptors", "nM", "=", 78),
    ("COc1cccc2c1CC(CNCC1CCN(c3ncccn3)CC1)CC2 (centres unmarked) [Example 9, hydrochloride]", "α1-adrenoceptors", "nM", "=", 34),
]
